Here we list compounds with their recorded IC50 when tested on neuraminidase (EC. 3.2.1.8, C. perfringens, SIGMA, N2876) (Clostridium perfringens).
Sequence (A0A0H2YQR1 1-694): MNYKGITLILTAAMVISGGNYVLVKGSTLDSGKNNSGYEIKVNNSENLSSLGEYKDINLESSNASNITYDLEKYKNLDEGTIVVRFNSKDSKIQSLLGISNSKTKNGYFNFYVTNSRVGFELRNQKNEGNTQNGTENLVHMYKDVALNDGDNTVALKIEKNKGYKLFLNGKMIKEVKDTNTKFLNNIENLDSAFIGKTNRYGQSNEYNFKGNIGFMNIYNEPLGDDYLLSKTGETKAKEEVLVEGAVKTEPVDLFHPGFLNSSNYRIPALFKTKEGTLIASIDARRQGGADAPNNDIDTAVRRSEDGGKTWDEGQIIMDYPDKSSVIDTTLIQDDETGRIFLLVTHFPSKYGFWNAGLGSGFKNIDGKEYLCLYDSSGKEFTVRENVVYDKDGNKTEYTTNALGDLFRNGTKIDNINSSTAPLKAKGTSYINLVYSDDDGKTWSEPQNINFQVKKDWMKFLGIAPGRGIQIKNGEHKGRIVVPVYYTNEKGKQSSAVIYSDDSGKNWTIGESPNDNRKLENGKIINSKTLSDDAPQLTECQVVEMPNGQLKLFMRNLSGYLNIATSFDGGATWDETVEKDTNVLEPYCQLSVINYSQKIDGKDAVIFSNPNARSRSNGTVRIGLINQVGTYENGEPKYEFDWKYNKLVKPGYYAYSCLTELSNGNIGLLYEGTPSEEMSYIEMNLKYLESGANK
Report the figure in µM without appending any unit label.

COc1ccc(C2CC(=O)c3c(cc(O)c(C/C=C(\C)CCC=C(C)C)c3O)O2)cc1O (centres unmarked) [Compound 5, 4′-O-methyldiplacone]	12.9

We now examine a further compound.
Input CC(C)=CCC/C(C)=C/Cc1c(O)cc2c(c1O)C(=O)CC(c1ccc(O)c(O)c1)O2 (centres unmarked) [Compound 8, diplacone] . Output IC50: 0.11
